Test: Identification of proteins required for the processing of the EWS-FLI1 nascent transcript;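 also: robust z of luciferase light less the median z of siRNAs with the same seed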
Details: TC32 Ewing sarcoma NR0B1-luc vs CMV-luc (EWS-FLI1 target promoter against control promoter), 48 h; screened at 20 nM (by protocol)
In all, about 59,000 sequences were measured (the read-out: median about -0.00055, lowest 2% from about -2 on). The entries come from a sample that favours the lowest values as a whole.
Each entry gets Not satisfied if its seed-corrected z-score stays under -0.05, and Satisfied if its seed-corrected z-score is -0.05 or above.

primary sequence	assigned label
UUGGACAUGAUGAAAUUCC against EML3	Satisfied
AUAGUUGCCGGUGCUCACC against PICK1	Not satisfied
AUAGAUAUGUUCACAAGUG against UNC119B	Satisfied
AAUCUAUAACUCUUUGACC against MKKS	Not satisfied
UCCCUAACAAAGCAUGUAC against ISL1	Not satisfied
UCCAGUUGUUCAAUCAUGG against CNTROB	Not satisfied
AUACUGGAUAUCAUAGUUC against ARG2	Not satisfied
AAUGCUCUCAGUUGAGAUG against C19orf44	Satisfied
UUUGCAUCGUGGUAUUUCC against CTCFL	Satisfied
UUAAUGAACACAAGCAUGU against RPL23AP14	Satisfied
AUCUGCAUAAUCCUUGUUG against COG2	Not satisfied
